# assayedSystem: T1, human GIP receptor (human), P48546
# T1 chain: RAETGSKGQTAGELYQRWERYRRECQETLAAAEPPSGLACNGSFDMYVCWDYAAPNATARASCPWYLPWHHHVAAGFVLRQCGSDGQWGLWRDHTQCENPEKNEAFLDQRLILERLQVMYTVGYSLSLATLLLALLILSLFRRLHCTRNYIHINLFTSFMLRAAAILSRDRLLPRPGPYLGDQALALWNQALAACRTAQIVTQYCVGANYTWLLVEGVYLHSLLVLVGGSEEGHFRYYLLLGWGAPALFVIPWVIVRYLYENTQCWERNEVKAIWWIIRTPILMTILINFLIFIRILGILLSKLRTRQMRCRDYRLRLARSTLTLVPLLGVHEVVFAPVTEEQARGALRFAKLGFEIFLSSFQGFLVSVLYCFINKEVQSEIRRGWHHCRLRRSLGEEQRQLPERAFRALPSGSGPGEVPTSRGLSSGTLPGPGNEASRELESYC
# testSummary: 125I-GIP displacement, HEK-GIPR
metricName: IC50 (nM)
Numbers only, in nM.

YAEGTFISDYSIAMDKIHQQDFVNWLLAQKPKKIRYS (modifications not checked) [0601GIP4233]	0.21

API: the following record is the query input.
Exam item: Recorded IC50 of YAEGTFISDYSIAMDKIHQQDFVNWLLAQKPSSGAPPPS (modifications not checked) [0601GIP4178] , please.
Marked response: 0.17
